# testedOn: Muscarinic acetylcholine receptor M1 (Rattus norvegicus) (UniProt P08482)
# Sequence (P08482 whole entry, looked up): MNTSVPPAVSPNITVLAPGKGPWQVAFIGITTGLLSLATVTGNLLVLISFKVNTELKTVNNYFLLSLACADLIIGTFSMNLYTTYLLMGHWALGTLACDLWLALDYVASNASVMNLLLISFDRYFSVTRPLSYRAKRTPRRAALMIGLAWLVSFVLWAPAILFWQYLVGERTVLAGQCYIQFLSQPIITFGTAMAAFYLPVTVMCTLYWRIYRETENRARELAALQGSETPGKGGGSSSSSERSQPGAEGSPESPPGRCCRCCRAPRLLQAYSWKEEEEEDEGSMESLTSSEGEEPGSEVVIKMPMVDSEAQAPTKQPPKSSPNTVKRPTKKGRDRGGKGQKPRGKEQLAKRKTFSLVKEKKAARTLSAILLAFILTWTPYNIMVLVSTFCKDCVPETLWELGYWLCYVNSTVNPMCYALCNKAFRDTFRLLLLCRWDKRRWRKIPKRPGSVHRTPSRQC
# assayOverview: antagonists of rat M1 muscarinic receptor (AID 628)
# particulars: CHO-M1 cells, Fluo-4 calcium, ACh EC80 antagonist mode; at 10 µM; active compounds read low
Out of some 64,000 compounds screened, about 2,200 (3.4%) were called active. This is one part of a sample in which actives are shown more often than they occur.
Could you please report measured B-score for the items listed next?

COc1cccc(-n2cc(C(=O)O)c3ccccc3c2=O)c1    1.31 (inactive)
COC(=O)Nc1c(C)n(C)n(-c2ccccc2)c1=O    -0.678 (inactive)
CCOc1ccccc1NC(=O)C1CCC(CNc2c(N3CCOCC3)c(=O)c2=O)CC1 (stereo unspecified)    0.744 (inactive)

# batch size: 4; output B-score per entry
1. CCc1nnc(NC(=O)CCC(=O)O)s1
2. Cc1ccc(S(=O)(=O)Nc2ccccc2CNc2c(C)n(C)n(-c3ccccc3)c2=O)cc1
3. Cn1c(=O)[nH]c(=O)c2c1nc(N1CCN(CCO)CC1)n2CCSc1nc2ccccc2s1
4. CCn1c(SCC(=O)Nc2cc(C)ccc2C)nnc1-c1cnccn1

## Result
1: 0.852 (inactive); 2: 0.193 (inactive); 3: -0.514 (inactive); 4: 0.583 (inactive)

# batch size: 3; output B-score per entry
1. CC1CCC(NS(=O)(=O)c2ccc3c(c2)n(C)c(=O)c(=O)n3C)CC1 (stereo unspecified)
2. O=C(NCC(F)(F)F)Nc1nnc(C(F)(F)F)s1
3. COc1ccc(S(=O)(=O)Nc2c(C)n(C)n(-c3ccccc3)c2=O)cc1

## Result
1. -0.853 (inactive)
2. -1.96 (active)
3. 2.26 (active)

## Task Would you mind telling me what B-score value was observed for `Cn1c(C(=O)NCCCN2CCCCC2)cc2sccc21` ?
## Result -1.16 (inactive)

----------
# testedOn: Muscarinic acetylcholine receptor M1 (Rattus norvegicus) (UniProt P08482)
# assayOverview: antagonists of rat M1 muscarinic receptor (AID 628)
# particulars: CHO-M1 cells, Fluo-4 calcium, ACh EC80 antagonist mode; at 10 µM
Hit rate of the full screen: of about 64,000 compounds, about 2,200 (3.4%) were called active.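 How the source made its calls: active means calcium fluorescence response, raw or row-and-column corrected B-score, differing from the plate sample mean either way at a set confidence level, mostly lower; inactive means the rest.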 Many of the other results were omitted from the sample, so actives are more common in it than they were.
Output constraint: value belongs to label 1 for active, label 0 for inactive

CCN(CCCCOC(=O)c1ccc(OC)c(OC)c1)C(C)Cc1ccc(OC)cc1 (stereo not given)    label 1

Let us examine a further case.
## Task Recorded test outcome, item COC(=O)c1ccc(NC(=O)C(C)N2C(=O)c3ccccc3C2=O)cc1 (stereo not given)
## Result label 0

----------
# testedOn: Muscarinic acetylcholine receptor M1 (Rattus norvegicus) (UniProt P08482)
# assayOverview: antagonists of rat M1 muscarinic receptor (AID 628)
# particulars: CHO-M1 cells, Fluo-4 calcium, ACh EC80 antagonist mode; at 10 µM
About 2,200 (3.4%) of roughly 64,000 compounds were called active.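 Rule for the calls: active = calcium fluorescence response, raw or row-and-column corrected B-score, differing from the plate sample mean either way at a set confidence level, mostly lower; inactive = the rest.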 For the sample, actives were picked, then their nearest neighbours and some compounds at random.
Output constraint: value belongs to active, inactive

# example entries with known answers
CCN1CCCC1CNc1ncnc2c1[nH]c1ccc(F)cc12 (stereo not drawn)    inactive
CCn1c(Cc2ccccc2)nnc1SCC(=O)Nc1ccccc1    inactive
Cc1n[nH]c(C)c1S(=O)(=O)N1CCCC(C(=O)NCC2COc3ccccc3O2)C1 (stereo not drawn)    inactive

## Task Recorded test outcome, item `CCOC(=O)c1[nH]c2ccc(OC)cc2c1NC(=O)N1CCOCC1`
## Result inactive

## Task What about this compound? `C=CCOc1ccc(/C=N/n2cncn2)cc1OC`
## Result inactive
